# TESTED_ON: Heat shock protein HSP90 (Homo sapiens, UniProt P07900+P08238)
# Assay type: cell-based
# DETAILS: au565
Reported IC50 by item:
The answer is to be given in µM; state only the numeric part.

Here's what some known entries look like.
                                   molecule  assay_metric  measured_number
0  CC1(C)CC(=O)c2c(C(F)F)nn(-c3ccc(C(N)=O)c(N[C@H]4CC[C@H](O)CC4)c3)c2C1          IC50            0.016
1  COc1cc(Nc2cc(-n3c(C)cc4c3CC(C)(C)CC4=O)ccc2C(N)=O)cc(OC)c1OC          IC50             0.49
2  Cc1nn(-c2ccc(C(N)=O)c(NC3CC=CC3)c2)c2c1C(=O)CC(C)(C)C2          IC50            0.111
3  Cc1nn(-c2ccc(C(N)=O)c(NC3CCC3)c2)c2c1C(=O)CC(C)(C)C2          IC50            0.229
4  CC(C)c1nn(-c2ccc(C(N)=O)c(N[C@H]3CC[C@H](O)CC3)c2)c2c1C(=O)CC(C)(C)C2          IC50            0.203
5  Cc1cn(-c2ccc(C(N)=O)c(N[C@@H](C)c3ccccc3)c2)c2c1C(=O)CC(C)(C)C2          IC50            0.418
6  Cc1nn(-c2ccc(C(N)=O)c(N[C@H]3CC[C@H](O)CC3)c2)c2c1C(=O)CC(C)(C)C2          IC50             0.03
7  CCc1nn(-c2ccc(C(N)=O)c(N[C@H]3CC[C@H](O)CC3)c2)c2c1C(=O)CC(C)(C)C2          IC50            0.009

Would you kindly look at the next entry?
Data request: Entry Cc1c2c(n(-c3ccc(C(N)=O)c(N[C@H]4CC[C@H](O)CC4)c3)c1C)CC(C)(C)CC2=O has what IC50?
Data returned: 0.064

* * *

# TESTED_ON: Heat shock protein HSP90 (Homo sapiens, UniProt P07900+P08238)
# Assay type: cell-based
# DETAILS: au565
ASSAY_METRIC: IC50

Here's what some known entries look like.
>>> df
                                   molecule    result
0  CCCCOc1cc(-n2c(C)cc3c2CC(C)(C)CC3=O)ccc1C(N)=O   > 10 µM
1  Cc1cc2c(n1-c1ccc(C(N)=O)cc1)CC(C)(C)CC2=O  > 100 µM
2  Cc1cc2c(n1-c1ccc(C(N)=O)c(Sc3ccccc3)c1)CC(C)(C)CC2=O   > 10 µM
3  CCCCNc1cc(-n2c(C)cc3c2CC(C)(C)CC3=O)ccc1C(N)=O   > 10 µM

Data request: Entry CCCCCc1cc(-n2c(C)cc3c2CC(C)(C)CC3=O)ccc1C(N)=O has what IC50?
Data returned: > 10 µM

Data request: Input Cc1cn(-c2ccc(C(N)=O)c(N3CCNCC3)c2)c2c1C(=O)CC(C)(C)C2
Data returned: > 7 µM

* * *

Reported IC50 by item:
# TESTED_ON: Heat shock protein HSP90 (Homo sapiens, UniProt P07900+P08238)
# Assay type: cell-based
# DETAILS: au565

In [3]: df
Out[3]:
                                   molecule                                 tested_on  assay_metric   result
0  COCCNc1cc(-n2c(C)cc3c2CC(C)(C)CC3=O)ccc1C(N)=O  Heat shock protein HSP90 (Homo sapiens, UniProt P07900+P08238)          IC50  > 10 µM

Data request: Entry Cc1nn(-c2ccc(C(N)=O)c(NCc3ccco3)c2)c2c1C(=O)CC(C)(C)C2 has what IC50?
Data returned: > 1 µM

Data request: Input Cc1cn(-c2ccc(C(N)=O)c(NCCN3CCOCC3)c2)c2c1C(=O)CC(C)(C)C2
Data returned: > 4 µM
